Biological target: E. coli MurC (Escherichia coli, UniProt P17952)
Sequence (P17952 whole entry): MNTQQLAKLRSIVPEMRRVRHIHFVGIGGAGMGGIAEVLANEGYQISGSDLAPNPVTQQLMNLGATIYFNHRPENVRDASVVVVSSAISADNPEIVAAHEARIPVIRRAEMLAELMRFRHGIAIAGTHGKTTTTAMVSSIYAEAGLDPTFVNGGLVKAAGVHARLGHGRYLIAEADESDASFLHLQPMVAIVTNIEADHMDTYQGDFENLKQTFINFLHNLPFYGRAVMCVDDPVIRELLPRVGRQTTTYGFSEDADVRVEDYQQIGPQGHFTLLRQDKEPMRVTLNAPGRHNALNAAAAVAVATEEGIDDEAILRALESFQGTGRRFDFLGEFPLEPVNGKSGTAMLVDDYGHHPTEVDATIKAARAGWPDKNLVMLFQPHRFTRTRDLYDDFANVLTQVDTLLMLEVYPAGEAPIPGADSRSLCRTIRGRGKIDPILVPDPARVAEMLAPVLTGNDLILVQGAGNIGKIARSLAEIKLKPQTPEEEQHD
Experiment: MurC inhibition assay (Malachite green)
Assay type: biochemical
Details: 0.25 h; residual activity at 100 µM compound; mean ± SD of three independent experiments; read-out: RA (%) @ 100 µM MurC
experimental endpoint: remaining activity at 100 µM (%)
Lab book: enter the figure in %, no units written.

Example molecules with recorded remaining activity at 100 µM:
molecule=COc1cc(OC)c2c(=O)cc(-c3ccc(OC)c(OC)c3)oc2c1 numeric_result=100
molecule=CC(C)=CCc1c(O)cc(O)c2c1O[C@H](c1ccc(O)cc1)CC2=O numeric_result=95
molecule=COc1cc(O)c2c(=O)c(O)c(-c3ccc(O)c(O)c3)oc2c1 numeric_result=66
molecule="O=c1cc(-c2ccc(O)c(O)c2)oc2cc(OC3OC(CO)C(O)C(O)C3O)cc(O)c12 (centres unmarked)" numeric_result=100

Item "O=c1cc(-c2ccccc2)oc2cc(O)cc(O)c12" with E. coli MurC (Escherichia coli, UniProt P17952) - remaining activity at 100 µM? 100
